Biological target: Carnitine O-palmitoyltransferase 1, muscle isoform (Homo sapiens, UniProt Q92523)
Sequence (Q92523 whole entry): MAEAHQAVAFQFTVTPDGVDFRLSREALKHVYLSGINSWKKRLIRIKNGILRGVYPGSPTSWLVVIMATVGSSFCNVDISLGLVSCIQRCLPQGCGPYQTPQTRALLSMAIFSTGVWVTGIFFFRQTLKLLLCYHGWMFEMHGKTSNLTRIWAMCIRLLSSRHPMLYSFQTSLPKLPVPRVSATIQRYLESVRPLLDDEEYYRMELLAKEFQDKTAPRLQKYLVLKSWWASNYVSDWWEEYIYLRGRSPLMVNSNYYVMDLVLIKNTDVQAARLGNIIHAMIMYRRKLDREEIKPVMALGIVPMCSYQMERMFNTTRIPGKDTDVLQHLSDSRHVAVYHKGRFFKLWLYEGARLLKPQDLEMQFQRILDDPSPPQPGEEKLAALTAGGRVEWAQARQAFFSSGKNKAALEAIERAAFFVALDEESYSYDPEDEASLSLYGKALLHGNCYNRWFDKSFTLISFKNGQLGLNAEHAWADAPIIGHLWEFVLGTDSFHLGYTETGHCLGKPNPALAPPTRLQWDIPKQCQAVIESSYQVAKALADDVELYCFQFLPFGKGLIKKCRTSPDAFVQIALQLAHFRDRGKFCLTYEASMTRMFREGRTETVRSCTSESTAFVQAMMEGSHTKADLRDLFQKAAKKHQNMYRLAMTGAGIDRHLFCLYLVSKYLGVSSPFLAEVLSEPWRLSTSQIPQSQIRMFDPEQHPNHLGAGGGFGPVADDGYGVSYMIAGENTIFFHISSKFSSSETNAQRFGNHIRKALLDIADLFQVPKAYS
Test: SUPPLEMENTARY: Inhibition of Carnitine palmitoyltransferase 1, muscle isoform
observed property: pIC50
Conceptually, pIC50 converts a concentration in mol/L into minus its log10.

Examples from the recorded data:
>  <structure smiles>
N#Cc1cccc(-c2csc([C@H]3CCCCN3C(=O)COc3ccccc3)n2)c1

>  <pIC50>
5.09

$$$$
>  <structure smiles>
COc1ccc(Cl)cc1S(=O)(=O)N1COCc2ccc(C(=O)Nc3nc(CC(=O)O)cs3)cc21

>  <pIC50>
5.86

$$$$

stdin: Need pIC50 of Cc1ccc(-c2nc([C@H]3CCCCN3C(=O)COc3ccccc3)cs2)cn1 , thanks.
stdout: 4.44

stdin: Need pIC50 of O=C(NCc1ccc(-c2nnn[nH]2)cc1)c1nn(Cc2ccc(OC(F)F)cc2)c2ccc(F)cc12 , thanks.
stdout: 5.07

stdin: Need pIC50 of COc1ccc(Cl)cc1S(=O)(=O)N[C@@H]1CCCN(C(=O)COc2ccccc2)C1 , thanks.
stdout: 4.29

====

experiment: SUPPLEMENTARY: PAMPA permeability assay; assay type: physicochemical; conditions: read-out: Permeability
Tick 1 if Papp is 3 ×10⁻⁶ cm/s or greater. Tick 0 if Papp is less than 3 ×10⁻⁶ cm/s.

Below, 8 molecules whose answers are already recorded.
>  <structure smiles>
O=C([O-])c1cccc(-c2csc([C@H]3CCCCN3C(=O)COc3ccccc3)n2)c1.[Na+]

>  <category label>
1

$$$$
>  <structure smiles>
COc1ccc(Cl)cc1S(=O)(=O)N1CCOc2c(Cl)cc(C(=O)Nc3nc(CC(=O)O)cs3)cc21

>  <category label>
0

$$$$
>  <structure smiles>
Cc1ccc(-c2nc([C@H]3CCCCN3C(=O)COc3ccccc3)cs2)cn1

>  <category label>
0

$$$$
>  <structure smiles>
CC(=O)Nc1cc(-c2n[nH]c([C@H]3CCCCN3C(=O)COc3ccccc3)n2)ccc1F

>  <category label>
0

$$$$
>  <structure smiles>
COc1ccc(Cl)cc1S(=O)(=O)N1CCc2c(C)cc(C(=O)Nc3ccc(C(=O)O)c(F)c3)cc21

>  <category label>
0

$$$$
>  <structure smiles>
COc1ccc(Cl)cc1S(=O)(=O)N1CCOc2ccc(C(=O)Nc3ccc(C(=O)O)nc3)cc21

>  <category label>
0

$$$$
>  <structure smiles>
COc1ccc(Cl)cc1S(=O)(=O)N1COc2c(F)cc(C(=O)Nc3ccc(C(=O)O)cc3)cc21

>  <category label>
0

$$$$
>  <structure smiles>
N#Cc1cncc(-c2noc([C@H]3CCCCN3C(=O)COc3ccccc3)n2)c1

>  <category label>
1

$$$$

Here's the next entry for you.
stdin: Is Papp at least 3 ×10⁻⁶ cm/s? Consider CC(=O)Nc1cccc(-c2n[nH]c([C@H]3CCCCN3C(=O)COc3ccccc3)n2)c1
stdout: 0

====

test: SUPPLEMENTARY: Lyophilisation Solubility Assay (LYSA); assay type: physicochemical; conditions: read-out: Kinetic_solubility
Recorded solubility kinetic values for a group of compounds are listed next.
Just the number please, in µg/mL, no unit attached.

Examples from the recorded data:
>  <compound>
COc1ccc(-c2nc([C@H]3CCCCN3C(=O)COc3ccccc3)cs2)cn1

>  <endpoint unit>
µg/mL

>  <solubility kinetic>
2

$$$$
>  <compound>
COc1ccc(Cl)cc1S(=O)(=O)N1C[C@H](C)c2ccc(C(=O)Nc3ccc(C(=O)O)cc3)cc21

>  <endpoint unit>
µg/mL

>  <solubility kinetic>
3

$$$$
>  <compound>
CN1CCN(C(=O)COc2ccccc2)[C@@H](c2nc(-c3cccc(C(F)(F)F)c3)n[nH]2)C1

>  <endpoint unit>
µg/mL

>  <solubility kinetic>
81

$$$$
>  <compound>
COc1ccc(Cl)cc1S(=O)(=O)c1c[nH]c2ccc(C(=O)Nc3ccccc3)cc12

>  <endpoint unit>
µg/mL

>  <solubility kinetic>
1

$$$$
>  <compound>
CS(=O)(=O)NCc1cccc(-c2nc([C@H]3CCCCN3C(=O)COc3ccccc3)no2)c1

>  <endpoint unit>
µg/mL

>  <solubility kinetic>
94

$$$$

stdin: Need solubility kinetic of COc1ccc(Cl)cc1S(=O)(=O)N1CC(C)c2ccc(C(=O)Nc3ccc(C(=O)O)c(F)c3)cc21 (centres undefined) , thanks.
stdout: 493

====

experiment: SUPPLEMENTARY: Lipophilicity (log D) Determination by high-throughput shake-flask; type: physicochemical; details: octanol/water
Recorded logD values for a group of compounds are listed next.
Please respond with just the number, no unit label.

>  <structure smiles>
NS(=O)(=O)c1ccc(C#C[C@H]2CCCCN2C(=O)COc2ccccc2)cc1

>  <logD>
3.01

$$$$

Consider the additional compound presented here.
stdin: Need logD of COc1ccc(Cl)cc1CN1C(=O)OCc2ccc(C(=O)Nc3nc(CC(=O)O)cs3)cc21 , thanks.
stdout: 0.06

====

assay: SUPPLEMENTARY: PAMPA permeability assay; format: physicochemical; details: read-out: Permeability
Each record is given YES if its reported Papp is strictly below 4 ×10⁻⁶ cm/s. Records at or above 4 ×10⁻⁶ cm/s are given NO.

Below, 4 molecules whose answers are already recorded.
>  <structure smiles>
O=C1Nc2ccc(-c3noc([C@H]4CCCCN4C(=O)COc4ccccc4)n3)cc2CO1

>  <category label>
YES

$$$$
>  <structure smiles>
O=C(COc1ccccc1)N1CCCC[C@@H]1c1nc(-c2cccc(B(O)O)c2)no1

>  <category label>
NO

$$$$
>  <structure smiles>
COc1ccc(Cl)cc1S(=O)(=O)N1CCSc2ccc(C(=O)Nc3ccc(C(=O)O)c(F)c3)cc21

>  <category label>
YES

$$$$
>  <structure smiles>
O=C(COc1ccccc1)N1CCCC[C@@H]1c1noc(-c2cccc3[nH][nH]c(=O)c23)n1

>  <category label>
NO

$$$$

stdin: Below 4 ×10⁻⁶ cm/s on Papp? Entry NC(=O)c1cncc(-c2noc([C@H]3COCCN3C(=O)COc3ccccc3)n2)c1
stdout: YES

stdin: Below 4 ×10⁻⁶ cm/s on Papp? Entry O=C(O)Cc1ccc(NC(=O)c2ccc3c(c2)N(S(=O)(=O)c2cccc(Cl)c2)CC3)cc1
stdout: YES

stdin: Below 4 ×10⁻⁶ cm/s on Papp? Entry CC(=O)Nc1ccc(-c2noc([C@H]3CCCCN3C(=O)C#Cc3ccccc3)n2)cc1C(F)(F)F
stdout: YES

stdin: Below 4 ×10⁻⁶ cm/s on Papp? Entry CC(=O)NCc1cccc(-c2nc([C@H]3CCCCN3C(=O)COc3ccccc3)no2)c1
stdout: YES

====

Recorded IC50 values for a group of molecules are listed next.
Target: Carnitine O-palmitoyltransferase 2, mitochondrial (Homo sapiens, UniProt P23786)
Sequence (P23786 whole entry): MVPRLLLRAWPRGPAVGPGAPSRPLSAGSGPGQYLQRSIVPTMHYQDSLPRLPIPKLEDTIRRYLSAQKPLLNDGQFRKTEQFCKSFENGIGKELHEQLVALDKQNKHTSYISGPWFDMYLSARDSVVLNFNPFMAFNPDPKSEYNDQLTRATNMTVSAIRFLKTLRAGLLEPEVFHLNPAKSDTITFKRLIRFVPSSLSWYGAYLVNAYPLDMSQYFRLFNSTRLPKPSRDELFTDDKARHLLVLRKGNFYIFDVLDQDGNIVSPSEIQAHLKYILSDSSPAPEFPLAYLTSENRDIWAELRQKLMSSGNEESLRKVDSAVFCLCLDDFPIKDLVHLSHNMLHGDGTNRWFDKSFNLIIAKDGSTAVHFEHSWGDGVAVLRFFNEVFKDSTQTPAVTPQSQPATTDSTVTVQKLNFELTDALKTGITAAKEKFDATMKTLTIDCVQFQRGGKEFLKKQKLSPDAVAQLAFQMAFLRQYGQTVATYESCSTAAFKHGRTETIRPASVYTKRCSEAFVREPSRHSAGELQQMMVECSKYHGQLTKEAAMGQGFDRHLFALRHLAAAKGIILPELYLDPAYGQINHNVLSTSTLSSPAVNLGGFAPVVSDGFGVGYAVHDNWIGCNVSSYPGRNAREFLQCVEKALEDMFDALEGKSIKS
Just the number please, in µM, no unit attached.

Examples from the recorded data:
>  <structure smiles>
CN1CCN(C(=O)COc2ccccc2)[C@@H](c2nc(-c3ccc4c(c3)CC(=O)N4)no2)C1

>  <observed property>
IC50

>  <endpoint unit>
µM

>  <measurement>
16.5

$$$$
>  <structure smiles>
O=C(COc1ccccc1)N1CCCC[C@@H]1c1nc(-c2ccc(-c3cnc[nH]3)cc2)no1

>  <observed property>
IC50

>  <endpoint unit>
µM

>  <measurement>
41.8

$$$$
>  <structure smiles>
O=C(COc1ccccc1)N1CCCC[C@@H]1c1noc(-c2ccc(-n3cncn3)cc2)n1

>  <observed property>
IC50

>  <endpoint unit>
µM

>  <measurement>
33.4

$$$$

stdin: Need IC50 of O=C([C@H]1CCCCN1C(=O)COc1ccccc1)N1CCc2c(Cl)cccc2C1 , thanks.
stdout: 0.634

stdin: Need IC50 of COc1ccc(Cl)cc1S(=O)(=O)c1cn(C)c2ccc(C(=O)Nc3ccc(C(=O)O)cc3)cc12 , thanks.
stdout: 0.579

Values from ChEMBL document CHEMBL3431459
